Just for reference, patent US20240366511A1 is where these values come from.

experiment: Solubility of gepotidacin mesylate dihydrate (Form 1) in water and simulated fluids; assay type: physicochemical; conditions: 20 °C, thermodynamic from solid; Water; as free base; 20-25° C.; read-out: Solubility (mg/mL of free base at 20-25° C.)
Where a name gives a salt, the structure may show the parent alone.

| compound | solubility |
| --- | --- |
| O=c1ccc2ncc(=O)n3c2n1C[C@H]3CN1CCC(NCc2cc3c(cn2)OCCC3)CC1 [gepotidacin mesylate dihydrate (Form 1)] | > 180 mg/mL |

###

Assay: Solubility of gepotidacin mesylate dihydrate (Form 1) in water and simulated fluids
Format: physicochemical
Details: fed state simulated intestinal fluid (FeSSIF), 20 °C, thermodynamic from solid; FeSSIF (pH 6.5); as free base; 20-25° C.; read-out: Solubility (mg/mL of free base at 20-25° C.)
Description: The solubility of gepotidacin mesylate dihydrate (Form 1) was determined in simulated gastric fluid pH 1.6 (SGF), fasted state simulated intestinal fluid pH 6.5 (FaSSIF) and fed state simulated intestinal fluid pH 6.5 (FeSSIF) at ambient room temperature (20-25 C).
Where a name gives a salt, the structure may show the parent alone.
endpointLabel: solubility

| compound | result |
| --- | --- |
| O=c1ccc2ncc(=O)n3c2n1C[C@H]3CN1CCC(NCc2cc3c(cn2)OCCC3)CC1 [gepotidacin mesylate dihydrate (Form 1)] | 99 mg/mL |

###

assay: Solubility of gepotidacin mesylate dihydrate (Form 1) in water and simulated fluids; format: physicochemical; conditions: simulated gastric fluid (SGF), 20 °C, simulated gastric fluid, thermodynamic from solid; SGF (pH 1.6); as free base; 20-25° C.; read-out: Solubility (mg/mL of free base at 20-25° C.)
Structures can show the parent of a compound that is named as a salt.
endpointLabel: solubility (mg/mL)

| compound | valueUnit | numericResult |
| --- | --- | --- |
| O=c1ccc2ncc(=O)n3c2n1C[C@H]3CN1CCC(NCc2cc3c(cn2)OCCC3)CC1 [gepotidacin mesylate dihydrate (Form 1)] | mg/mL | 175 |

###

test: Solubility of gepotidacin mesylate dihydrate (Form 1) in water and simulated fluids; type: physicochemical; details: fasted state simulated intestinal fluid (FaSSIF), 20 °C, thermodynamic from solid; FaSSIF (pH 6.5); as free base; 20-25° C.; read-out: Solubility (mg/mL of free base at 20-25° C.)
Structures can show the parent of a compound that is named as a salt.
endpointLabel: solubility (mg/mL)

| compound | endpointLabel | numericResult |
| --- | --- | --- |
| O=c1ccc2ncc(=O)n3c2n1C[C@H]3CN1CCC(NCc2cc3c(cn2)OCCC3)CC1 [gepotidacin mesylate dihydrate (Form 1)] | solubility | 113 |
